Hey, just so you know, these numbers are from the RNAGym collection of RNA variant scans (doi:10.1002/anie.201605470).

Reported self-cleavage values follow for various variants
B1: Osa-1-4 twister ribozyme (parent)
chain: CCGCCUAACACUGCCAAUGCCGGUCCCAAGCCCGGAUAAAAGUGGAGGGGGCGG

- Variants of: B1
- ASSAY TEXT: self-cleavage, relative activity (ratio to wild type); higher = more cleavage; co-transcriptional

>  <VARIANT DESCRIPTOR>
G42A G47C

>  <self-cleavage>
0.07

$$$$
>  <VARIANT DESCRIPTOR>
C14G G22A

>  <self-cleavage>
0.07

$$$$
>  <VARIANT DESCRIPTOR>
C15A C33A

>  <self-cleavage>
0.07

$$$$
>  <VARIANT DESCRIPTOR>
C33U G49C

>  <self-cleavage>
0.07

$$$$
>  <VARIANT DESCRIPTOR>
A38G G45C

>  <self-cleavage>
0.07

$$$$
>  <VARIANT DESCRIPTOR>
C32A G19A

>  <self-cleavage>
0.07

$$$$
>  <VARIANT DESCRIPTOR>
A46U U43G

>  <self-cleavage>
0.07

$$$$
